Values were extracted from ChEMBL document CHEMBL1153744.

List of CC50 at 96 h values.
# protocol: Cytotoxicity against human […] cells after 4 days by MTT assay
# Assay type: cell-based

Sample answers from the record:
- compound: "CS[C@@]12C[C@H]3C(=O)C[C@H](O)[C@H](O)[C@H]3N1C(=O)[C@]1(SC)C[C@H]3C(=O)C[C@H](O)[C@H](O)[C@H]3N1C2=O [EPICOCCIN H]"
  endpointResult: "> 100 µM"
- compound: "CS[C@@]12C[C@H]3C(=O)CC[C@H](O)[C@H]3N1C(=O)[C@]1(SC)C[C@H]3C(=O)CC[C@H](O)[C@H]3N1C2=O [EPICOCCIN G]"
  endpointResult: "> 100 µM"

Moving on to another compound below.
Note CC50 at 96 h for the compound shown: CN1C(=O)[C@H](Cc2ccccc2)NC(=O)/C1=C/c1ccccc1
> 100 µM
